Assay: In vitro stability in human liver microsomes (CLint)
Assay type: in vitro ADME
Conditions: pH 7.4, 0.5 mg/mL protein, 1.0 μmol/L compound, NADPH
The entries below are paired with their reported microsomal CLint at 1 μmol/L.

1. Clc1cccc(-c2nc(CN3CCCn4c(-c5cncnc5)nnc43)no2)c1 : 14 µL/min/mg
2. C[C@H](c1cc(-c2cccc(Cl)c2)on1)N1CCCn2c(-c3cn[nH]c(=O)c3)nnc21 : < 12 µL/min/mg

Consider now this further compound.
Query: Find the measured microsomal CLint at 1 μmol/L of Cc1cccc(-n2nnc(CN3CCCn4c(-c5cccnc5)nnc43)n2)c1 and report it.
Reply: < 12 µL/min/mg
